# study-target: ROP18 (187–554 aa) kinase domain (Toxoplasma gondii)
# Construct: kinase domain 187-554 of ROP18; His6-GST-MBP-Gb1 fusion from plasmid pETDL4.0-ROP18, E. coli Rosetta 2, amylose beads; 4JRN is the docking structure (187-554), not solved here
# Sequence (Q2PAY2 187-554): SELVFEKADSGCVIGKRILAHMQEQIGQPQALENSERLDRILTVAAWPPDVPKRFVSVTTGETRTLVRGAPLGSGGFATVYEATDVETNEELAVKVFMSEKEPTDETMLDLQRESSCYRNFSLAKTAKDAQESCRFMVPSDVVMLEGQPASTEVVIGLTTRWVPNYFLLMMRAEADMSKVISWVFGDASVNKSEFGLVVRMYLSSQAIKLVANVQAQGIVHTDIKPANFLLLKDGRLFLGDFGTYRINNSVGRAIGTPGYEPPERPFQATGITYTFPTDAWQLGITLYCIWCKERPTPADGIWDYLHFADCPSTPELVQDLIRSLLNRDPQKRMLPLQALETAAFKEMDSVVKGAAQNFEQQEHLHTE
# method-description: HTRF KinEASE kinase assay with biotinylated peptide substrate
# Format: biochemical

{"compound-structure": "C=CCN1C(=O)NC(=O)/C(=C/c2cc(Br)c(OCC(=O)O)c(OC)c2)C1=O", "IC50 (nM)": 220}

----------
# study-target: ROP18 (187–554 aa) kinase domain (Toxoplasma gondii)
# Construct: kinase domain 187-554 of ROP18; His6-GST-MBP-Gb1 fusion from plasmid pETDL4.0-ROP18, E. coli Rosetta 2, amylose beads; 4JRN is the docking structure (187-554), not solved here
# method-description: HTRF KinEASE kinase assay with biotinylated peptide substrate
# Type: biochemical
# measurement-conditions: read-out: IC50
pIC50: −log10 of the molar value.

{"compound-structure": "O=C(O)CCCCCN1C(=O)c2c(Br)c(Br)c(Br)c(Br)c2C1=O", "study-target": "ROP18 (187–554 aa) kinase domain (Toxoplasma gondii)", "pIC50": 7.39}
